Below, each entry is listed alongside its reported binding signal.
# tested.on: T1, SNAP25 Peptide 3 (PEP3; only a fragment of it is a SNAP25 subsequence) (Homo sapiens, UniProt P60880 SEQ:1-33)
# T1 chain: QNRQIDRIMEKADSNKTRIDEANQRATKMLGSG
# procedure.details: ELONA
Output spec: scalar in ELISA signal, unitless text.

>  <binder>
PEP 3.22 (ssDNA, W indole, X amine, Y phenol modified dU [15, 19, 46 (phenol dU), 43 (amine dU)]) DNA: TTTTTAACACGACATCACTGTGGAAGACACAGGACGTGCGTGTCGTGCCATG

>  <binding signal (ELISA signal)>
96

$$$$
>  <binder>
PEP 3.03 (ssDNA, W indole, X amine, Y phenol modified dU [16W,19W,20Y,34Y,38W,40W,43X,46Y]) DNA: TTTTTAACACGACAATGGTTCGGGGGGCGAACGTCACTGTGGTCGTGCCATG

>  <binding signal (ELISA signal)>
338

$$$$

Pending binder:
Input: Looking for the measured binding signal of PEP 3.02 (ssDNA, W indole, X amine, Y phenol modified dU [19Y,24W,25X,34Y,40W,43X,46Y]) DNA: TTTTTAACACGACAGCACTGTGGTTCGCGAACCTCAAGCTCGTCGTGCCATG , can you help?
Output: 406
